meta.source: patent US20230277698A1

System: LNCaP tumor-bearing CB17-SCID mice
Test: Biodistribution studies 24 h p.i.
Assay type: in vivo
Details: 177Lu-labelled, mean±SD, n=4-5
Observation Type: biodistribution: stomach (% ID/g)
Provide only the numeric value, understood in % ID/g.

- Molecule: "O=C(O)CC[C@H](NC(=O)N[C@@H](CCCCNC(=O)[C@H](Cc1ccc2ccccc2c1)NC(=O)[C@H]1CC[C@H](CNC(=O)CN2CCN(CC(=O)O)CCN(CC(=O)O)CCN(CC(=O)O)CC2)CC1)C(=O)O)C(=O)O [PSMA-617, reference compound]"
  Quantitative Readout: 0.02
- Molecule: "CC(C)(C)[Si](F)(c1ccc(C(=O)NC[C@@H](NC(=O)CN2CCN(CC(=O)O)CCN(CC(=O)O)CCN(CC(=O)O)CC2)C(=O)N[C@H](CCCCNC(=O)CCC(=O)NCCC[C@@H](NC(=O)CC[C@H](NC(=O)N[C@@H](CCC(=O)O)C(=O)O)C(=O)O)C(=O)O)C(=O)O)cc1)C(C)(C)C [rhPSMA-10, reference compound]"
  Quantitative Readout: 0.04

Fill in: biodistribution: stomach on LNCaP tumor-bearing CB17-SCID mice, entry CC(C)(C)[Si](O)(c1ccc(C(=O)N[C@H](CCC(=O)NC[C@@H](NC(=O)CC[C@@H](C(=O)O)N2CCN(CC(=O)O)CCN(CC(=O)O)CCN(CC(=O)O)CC2)C(=O)NCCCCCC(=O)NCCC[C@@H](NC(=O)CC[C@H](NC(=O)N[C@@H](CCC(=O)O)C(=O)O)C(=O)O)C(=O)O)C(=O)O)cc1)C(C)(C)C [P105-SiOH]
0.02

====

Target: human serum albumin (HSA) (Homo sapiens)
Sequence (P02768 25-609): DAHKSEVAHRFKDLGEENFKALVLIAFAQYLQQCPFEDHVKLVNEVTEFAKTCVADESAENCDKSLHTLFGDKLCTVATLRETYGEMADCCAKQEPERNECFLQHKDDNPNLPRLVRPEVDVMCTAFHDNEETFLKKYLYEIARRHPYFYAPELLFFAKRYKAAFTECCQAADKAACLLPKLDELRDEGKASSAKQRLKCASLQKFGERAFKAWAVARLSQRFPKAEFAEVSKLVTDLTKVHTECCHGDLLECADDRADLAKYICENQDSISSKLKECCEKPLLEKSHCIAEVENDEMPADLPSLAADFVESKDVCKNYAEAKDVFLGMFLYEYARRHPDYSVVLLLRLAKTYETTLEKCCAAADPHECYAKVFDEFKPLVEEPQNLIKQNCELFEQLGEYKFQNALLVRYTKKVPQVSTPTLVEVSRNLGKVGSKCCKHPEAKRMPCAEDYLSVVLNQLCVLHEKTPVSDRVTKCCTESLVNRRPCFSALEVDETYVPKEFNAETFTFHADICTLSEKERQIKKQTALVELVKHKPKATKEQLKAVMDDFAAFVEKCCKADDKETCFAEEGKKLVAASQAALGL
Test: HSA binding by high performance affinity chromatography (HiPAC)
Assay type: in vitro ADME
Parameters: purchased Daicel, Tokyo, Japan H13H-2433
Details: lutetium-complexed; Chiralpak HSA column
Observation Type: HSA-binding HiPAC
Number first, unit second.

Given CC(C)(C)[Si](O)(c1ccc(C(=O)NC[C@@H](NC(=O)CC[C@@H](C(=O)O)N2CCN(CC(=O)O)CCN(CC(=O)O)CCN(CC(=O)O)CC2)C(=O)NCC(=O)N[C@@H](CCCCNC(=O)CCC(=O)NCCC[C@@H](NC(=O)CC[C@H](NC(=O)N[C@@H](CCC(=O)O)C(=O)O)C(=O)O)C(=O)O)C(=O)O)cc1)C(C)(C)C [E102-SiOH] , report its HSA-binding HiPAC on human serum albumin (HSA) (Homo sapiens).
95.1%

====

Biological target: human serum albumin (HSA) (Homo sapiens)
Assay: HSA binding by radio inversed affinity chromatography (RIAC)
Assay type: in vitro ADME
Conditions: 177Lu-labelled; Superdex 75 Increase 10/300 GL, 700 μM HSA in PBS, 0.8 mL/min
This section presents compounds with their documented HSA-binding RIAC (apparent molecular weight) values.
Kindly answer with a numeric value in kDa, unit omitted.

- Compound: "O=C(O)CC[C@H](NC(=O)N[C@@H](CCCCNC(=O)CCCCCCC(=O)NCCCC[C@@H](NC(=O)[C@@H](Cc1ccccc1)NC(=O)[C@@H](Cc1ccc(O)c(I)c1)NC(=O)CCC(C(=O)O)N1CCN(CC(=O)O)CCN(CC(=O)O)CCN(CC(=O)O)CC1)C(=O)O)C(=O)O)C(=O)O (stereo partly drawn) [PSMA I&T, reference compound]"
  Quantitative Readout: 5.3
- Compound: "CC(C)(C)[Si](O)(c1ccc(C(=O)NC[C@@H](NC(=O)CC[C@@H](C(=O)O)N2CCN(CC(=O)O)CCN(CC(=O)O)CCN(CC(=O)O)CC2)C(=O)N[C@H](CCCCNC(=O)CCC(=O)NCCC[C@@H](NC(=O)CC[C@H](NC(=O)N[C@@H](CCC(=O)O)C(=O)O)C(=O)O)C(=O)O)C(=O)O)cc1)C(C)(C)C [7.3-SiOH]"
  Quantitative Readout: 10.1

Retrieve HSA-binding RIAC (apparent molecular weight) measured for CC(C)(C)[Si](O)(c1ccc(C(=O)NC[C@@H](NC(=O)CC[C@@H](C(=O)O)N2CCN(CC(=O)O)CCN(CC(=O)O)CCN(CC(=O)O)CC2)C(=O)NCC(=O)N[C@@H](CCCCNC(=O)CCC(=O)NCCC[C@@H](NC(=O)CC[C@H](NC(=O)N[C@@H](CCC(=O)O)C(=O)O)C(=O)O)C(=O)O)C(=O)O)cc1)C(C)(C)C [E102-SiOH] and print it.
9.3
